biological target: T1, purified recombinant 161P2F10B extracellular domain (Tag5-161P2F10B ECD, amino acids 46-875) (human, UniProt O14638 46-875); assay: SPR (BIAcore), MAb captured on chip, recombinant 161P2F10B injected, 1:1 fit;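 note: purified human MAbs immobilised by capture on a CM5 chip surface, about 150 RU of antibody per cycle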
T1 construct: also called full length ECD
Rule: Met for koff not less than 0.0002 s⁻¹, Not met for anything less.

Does koff meet or surpass 0.0002 s⁻¹ for H16-1(3,5)5 (antibody, V domains shown, Entries hold the leader (or part of it) and a portion of the constant region; also called Ha16-1(3,5)5) VH: EVQLVQSGAEVKKPGESLKISCKGSGYRFTSYWIGWVRQMPGKGLEWMGIIYPGDSDTRYSPSFQGQVTISADKSISTAYLQWSSLKASDTAMYYCARKDYYYYTMDVWGQGTTVTVSS VL: QSALTQPASVSGSPGQSITISCTGTSSDVGGYNYVSWYQQHPGKAPKLMIYAVSNRPSGVSNRFSGSKSGNTASLTISGLQAEDEADYYCSSYTISRILVVFGGGTKLTVLG ?
Not met

Decide: koff of H16-1.68 (antibody, V domains shown) VH: EVHLVESGGGVVQPGRSLRLSCAASGFTFRSYGMHWVRQAPGKGLEWVAVIWYDGSNKYYADSVKGRFTISRDNSKNTLYLQMNSLRAEDMAMYYCARSRITIFGVVHYGMDVWGQGTTVTVSS VL: TQLTQSPSSLSASVGDRVTITCRASQNINSYLNWYQQKPGKAPKLLIYAASSLQSGVPSRFSGSGSGTDFTLTISSLQPEDFTTYYCQQSYSSAPTFGGGTKLEIKR >= 0.0002 s⁻¹?
Met

Exam item: decide whether the reported koff for H16-9.10 (antibody, V domains shown, also called Ha16-9.10) VH: LLESGPGLVKPSQTLSLTCAISGDSVSSNSAAWNWIRQSPSRGLEWLGRTYYRSKWYNAYAVSVKSRMTINPDTSKNQFSLQLNSVTPEDTAVYYCAREAGGWFDPWGQGTLVTVSS VL: DIQMTQSPSSVSASVGDRVTITCRASQGIRSWLAWYQQKPGKAPKLLIYAASSLQSGVPSRFSGSGSGTDFTLTISSLQPEDFATYYCQQANSFPPTFGGGTKVEIKR is at least 0.0002 s⁻¹.
Met

Reported koff reaches at least 0.0002 s⁻¹ for H16-7.8 (antibody, V domains shown, Entries hold the leader and a portion of the constant region) VH: QVQLQESGPGLVKPSQTLSLTCTVSGGSISSGGYYWSWIRQHPGKGLEWIGIIYYSGSTYYNPSLKSRVTISVDTSKNQFSLKLNSVTAADTAVFYCARVAIVTTIPGGMDVWGQGTTVTVSS VL: EIVLTQSPDFQSVTPKEKVTITCRASQSIGISLHWYQQKPDQSPKLLIKYASQSFSGVPSRFSGSGSGTDFTLTINSLEAEDAATYYCHQSRSFPWTFGQGTKVEIKR ?
Met

Answer whether koff of Ha16-1(3,5)19 (antibody, V domains shown, Entries hold part of the leader and a portion of the constant region) VH: EVQLVQSGAEVKKPGESLKISCKGSGYRFTSYWIGWVRQMPGKGLEWMGIIYPGDSDTRYSPSFQGQVTISADKSISTAYLQWSSLKASDTAMYYCARKDYYYYAMDVWGQGTTVTVSS VL: QSALTQPASVSGSPGQSITISCTGTSSDVGRYNYVSWYQQHPGQAPKLMIYGISIRPSGVSPRFSGSKSGNTASLTISGLQAEDEADYYCSSHTSNSTLVVFAGGTKLTVLG is greater than or equal to 0.0002 s⁻¹.
Not met
